Test system: EpiIntestinal™ microtissues
experiment_description: RICyt assay: micronuclei (MN) cytome scoring in EpiIntestinal microtissues after 10-day repeated apical exposure
condition_parameters: 10-day exposure; positive = significant, dose-dependent %MN increase above historical negative range (>2.4 %)
Where a SMILES comes first, the peptide text is derived from it.
parameter_measured: RICyt outcome (genotoxic classification)

compound="COC(=O)[C@H](Cc1ccccc1)NC(=O)[C@@H](N)CC(=O)O [Aspartame] (H-Asp-Phe-OMe)" test_result=Negative
compound="O=Cc1ccc(CO)o1 [5-Hydroxymethyl furfural, 5-Hydroxymethylfurfural]" test_result=Negative
